- Subject of test: T1, BCMA on the surface of BCMA-positive cell lines H929 (NCI-H929) and RPMI8226 (human, UniProt Q02223 1-184)
- T1 construct: whole, on cells; Endogenous BCMA of the cell lines; also called 细胞膜表面的BCMA抗原
- T1 sequence (looked up): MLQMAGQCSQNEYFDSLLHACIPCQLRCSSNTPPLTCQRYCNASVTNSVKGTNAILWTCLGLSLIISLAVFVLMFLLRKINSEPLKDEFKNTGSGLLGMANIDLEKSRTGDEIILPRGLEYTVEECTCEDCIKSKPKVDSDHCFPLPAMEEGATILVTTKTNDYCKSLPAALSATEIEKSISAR
- Protocol details: flow cytometry on RPMI8226 cells
Readout name: 细胞结合百分率 (percent of cells bound) (%)
Just the number please, in %, no unit attached.

## Input Entry B10.3 (affinity-matured mutant of B10) (scFv, also called 突变体B10.3) scFv: QVQLQQSGAEVKKPGSSVKVSCKASGGTFSKSAIQWVRQAPGQGLEWMGGVIPIFGTANYAQKFQGRVTITADESTSTAYMELSSLRSEDTAVYYCARGWYLDLWGRGTLVTVSSGGSSRSSSSGGGGSGGGGLPVLTQPPSASGTPGQRVTISCSGSSNNIGGYSVNWYQQFPGTAPKLLIYRNNQRPSGVPDRFSGSKSGASASLAISGLQSEDEADYYCAAWDDSVIGWLFGTGTQLTVL has what 细胞结合百分率 (percent of cells bound)?
## Output 54.9

Reference source for all entries: patent CN113061185A
